Recorded GI50 by entry
Tested on: SR
Assay: NCI tumour cell line growth inhibition, 48 h
Active and inactive are the calls of the source. No stated cut-off is given here; in the data, active = GI50 up to about 1.1 µM and inactive = higher.

Reference set, count: 5
[
  {
    "molecule": "CC(=O)NC1=C(C)C(=O)c2c(nc3n2CCC3OC(=O)c2ccccc2)C1=N (stereo unspecified)",
    "GI50": "2.29 µM (inactive)"
  },
  {
    "molecule": "COC(=O)c1ccccc1NC(=O)/C(=N\\NC(C)(C)C)C(C#N)c1nc(-c2ccc([N+](=O)[O-])cc2)cs1 (stereo unspecified)",
    "GI50": "> 100 µM (inactive)"
  },
  {
    "molecule": "CSc1ncc2c(n1)-c1ccccc1OC2NC(C)(C)C (stereo unspecified)",
    "GI50": "> 100 µM (inactive)"
  },
  {
    "molecule": "O=C(O)CCC(=O)c1ccc2c(c1)C(C(=O)O)CC2 (stereo unspecified)",
    "GI50": "> 100 µM (inactive)"
  },
  {
    "molecule": "COC(=O)c1c(C)c2c(c(C)c1C(=O)OC)-c1c(C)ccc3ccc(C)c-2c13",
    "GI50": "6.78 µM (inactive)"
  }
]

Task: Quick one: GI50 for "COc1ccccc1N1C(=O)/C(=C/c2ccc(N(CCC#N)CCC#N)cc2C)N=C1c1cc([N+](=O)[O-])ccc1Cl" ?
Result: > 100 µM (inactive)

Task: Consider the molecule shown here: "O=C(/C=C/c1ccc(O)cc1)NCCc1ccc(O)cc1" What is its recorded GI50?
Result: 4.02 µM (inactive)

Task: For the molecule "Cc1ccnc2nc(N)ccc12" , what GI50 is on record?
Result: > 100 µM (inactive)

Task: GI50 for "CCOc1ccc(/N=N/c2ccc3cc(/C(C)=N/NC(=O)/C(C#N)=C\c4ccc(N(CCC#N)CCC#N)cc4)c(=O)oc3c2)cc1" ?
Result: > 10 µM (inactive)

Task: For the molecule shown here, CC1(C)C/N=C/C(C)(OCc2ccccc2)C(=O)NC(C)(C)C/N=C/C(C)(OCc2ccccc2)C(=O)N1 (stereo unspecified) , give the reported GI50.
Result: > 10 µM (inactive)

Task: Field request: GI50 | item: "CN(C)CCn1c(CO)nc2c1c(=O)n(C)c(=O)n2C"
Result: > 100 µM (inactive)

Task: I would be grateful if you could share the reported GI50 for "Cc1cc(N2CCCC2)c([N+](=O)[O-])cc1[N+](=O)[O-]" .
Result: > 100 µM (inactive)

Task: For N=C(N)NC1C(O)C(O)C(O)C(NC(=N)N)C1O (stereo unspecified) , what is its reported GI50?
Result: > 100 µM (inactive)

Task: Need GI50 of "CC1(C)CN=C(Nc2ccc(F)cc2)S1" , thanks.
Result: > 100 µM (inactive)

Task: Returns the measured GI50 for the input molecule. Input: "O=C1C(NS(=O)(=O)c2ccccc2)=C(n2ccnc2)C(=O)c2ccccc21"
Result: > 100 µM (inactive)

Task: Please look up its GI50: "COc1ccc2nc(NC(=O)C(=O)CC(=O)c3ccc(Cl)cc3)sc2c1"
Result: > 100 µM (inactive)

Task: Fill in the blank: the reported GI50 of "CN(CCn1cnc2c1c(=O)n(C)c(=O)n2C)C1CCCCC1" is ____.
Result: > 100 µM (inactive)

Task: Look at this molecule and give its reported GI50. "C=C1CCCCCCCCC/C=C/1SCCCSC"
Result: > 100 µM (inactive)

Task: Which GI50 value belongs to "O=C1c2ccccc2/N=C(/c2cc3c(cc2Cl)Sc2nccn2S3(=O)=O)OS(=O)(=O)N1c1ccccc1" ?
Result: 10.8 µM (inactive)

Task: What does the record list as GI50 for CSCCC(NC(=O)OC(C)(C)C)C(=O)NCCNc1ccc(NCCNC(=O)C(CCSC)NC(=O)OC(C)(C)C)c2c1C(=O)c1ccccc1C2=O (stereo unspecified) ?
Result: 2.83 µM (inactive)

Task: What does the data say about its GI50? Entry: Cc1ccc(S(=O)(=O)N/N=C2\CC3CC4CCC2C4C3)cc1 (stereo unspecified)
Result: > 100 µM (inactive)
